run_description: Drug level in mouse blood at 50 mg/kg, po after 4 hrs by microbiological assay
Assay type: ADME, organism-based
Design: dose 50 mg/kg, route oral
details: read-out: Drug uptake
experimental_readout: log10 of concentration at 4 h (log10 of the value in ng/mL)
Record value = log10 of concentration at 4 h given in ng/mL.

N[C@@H](C(=O)N[C@@H]1C(=O)N2C(C(=O)O)=C(Cc3cccnc3)CS[C@H]12)c1ccccc1; 2.00
N[C@@H](C(=O)N[C@@H]1C(=O)N2C(C(=O)O)=C(Cc3cccc(C(=O)O)c3)CS[C@H]12)c1ccccc1; 2.74
CC(=O)OCC1=C(C(=O)O)N2C(=O)[C@@H](NC(=O)[C@H](N)c3ccccc3)[C@H]2SC1; 1.85
N[C@@H](C(=O)N[C@@H]1C(=O)N2C(C(=O)O)=C(Cc3ccc(C(=O)O)cc3)CS[C@H]12)c1ccccc1; 3.28

# log10 of concentration at 4 h of N[C@@H](C(=O)N[C@@H]1C(=O)N2C(C(=O)O)=C(Cc3ccccc3)CS[C@H]12)c1ccccc1 = 2.18

Sample CC1=C(C(=O)O)N2C(=O)[C@@H](NC(=O)[C@H](N)c3ccccc3)[C@H]2SC1 [CEPHALEXIN ANHYDROUS] ; log10 of concentration at 4 h observed: 2.75

Query N[C@@H](C(=O)N[C@@H]1C(=O)N2C(C(=O)O)=C(Cc3ccccc3C(=O)O)CS[C@H]12)c1ccccc1 yields log10 of concentration at 4 h of 3.51

----------
run_description: Drug level in mouse blood at 50 mg/kg, iv after 4 hrs by microbiological assay
Assay type: ADME, organism-based
Design: dose 50 mg/kg, route intravenous
details: read-out: Drug uptake
experimental_readout: concentration at 4 h (µg/mL)
Give your result in µg/mL as a bare value.

N[C@@H](C(=O)N[C@@H]1C(=O)N2C(C(=O)O)=C(Cc3ccccc3C(=O)O)CS[C@H]12)c1ccccc1; 18.1

# ---- query compound ----
// recorded concentration at 4 h for N[C@@H](C(=O)N[C@@H]1C(=O)N2C(C(=O)O)=C(Cc3ccc(C(=O)O)cc3)CS[C@H]12)c1ccccc1 : 2.4

----------
Below, each of the molecules is paired with its reported concentration at 2 h value.
run_description: Drug level in mouse blood at 50 mg/kg, iv after 2 hrs by microbiological assay
Assay type: ADME, organism-based
Set-up: dose 50 mg/kg, route intravenous
details: read-out: Drug uptake
Write the answer as a number in µg/mL, unit excluded.

O=C(Cc1cccs1)N[C@@H]1C(=O)N2C(C(=O)[O-])=C(C[n+]3ccccc3)CS[C@H]12; 0.32
N[C@@H](C(=O)N[C@@H]1C(=O)N2C(C(=O)O)=C(Cc3ccccc3C(=O)O)CS[C@H]12)c1ccccc1; 29.1

// next item, concentration at 2 h requested
// sample N[C@@H](C(=O)N[C@@H]1C(=O)N2C(C(=O)O)=C(Cc3ccc(C(=O)O)cc3)CS[C@H]12)c1ccccc1 , its concentration at 2 h was 4.5

----------
// values below are reported concentration at 1 h
run_description: Drug level in mouse blood at 50 mg/kg, sc after 1 hr by microbiological assay
Assay type: ADME, organism-based
Set-up: dose 50 mg/kg, route subcutaneous
details: read-out: Drug uptake
Your answer should be a plain number; it is taken to be in ng/mL.

Known results for molecules:
N[C@@H](C(=O)N[C@@H]1C(=O)N2C(C(=O)O)=C(Cc3ccccc3C(=O)O)CS[C@H]12)c1ccccc1; 49200
N[C@@H](C(=O)N[C@@H]1C(=O)N2C(C(=O)O)=C(Cc3cncc(C(=O)O)c3)CS[C@H]12)c1ccccc1; 12200
CC1=C(C(=O)O)N2C(=O)[C@@H](NC(=O)[C@H](N)c3ccccc3)[C@H]2SC1 [CEPHALEXIN ANHYDROUS]; 3000

concentration at 1 h measured on N[C@@H](C(=O)N[C@@H]1C(=O)N2C(C(=O)O)=C(Cc3ccc(C(=O)O)cc3)CS[C@H]12)c1ccccc1 = 48000

The value of concentration at 1 h measured for the molecule N[C@@H](C(=O)N[C@@H]1C(=O)N2C(C(=O)O)=C(Cc3cccc(C(=O)O)c3)CS[C@H]12)c1ccccc1 turned out to be 26200

Entry O=C(Cc1cccs1)N[C@@H]1C(=O)N2C(C(=O)[O-])=C(C[n+]3ccccc3)CS[C@H]12 ; concentration at 1 h = 5600

Input CC(=O)OCC1=C(C(=O)O)N2C(=O)[C@@H](NC(=O)[C@H](N)c3ccccc3)[C@H]2SC1 . Output concentration at 1 h: 3100

----------
run_description: Drug level in mouse blood at 50 mg/kg, iv after 20 mins by microbiological assay
Assay type: ADME, organism-based
Set-up: dose 50 mg/kg, route intravenous
details: read-out: Drug uptake
Recorded concentration at 20 min values for a group of compounds are listed next.
Use ng/mL as the unit, but write only the number.

Guide cases for concentration at 20 min, answers given:
O=C(Cc1cccs1)N[C@@H]1C(=O)N2C(C(=O)[O-])=C(C[n+]3ccccc3)CS[C@H]12 [CEPHALORIDINE]; 23200
N[C@@H](C(=O)N[C@@H]1C(=O)N2C(C(=O)O)=C(Cc3ccccc3C(=O)O)CS[C@H]12)c1ccccc1; 83600
CC(=O)OCC1=C(C(=O)O)N2C(=O)[C@@H](NC(=O)[C@H](N)c3ccccc3)[C@H]2SC1 [CEPHALOGLYCIN]; 40200

Next up:
Measured concentration at 20 min of N[C@@H](C(=O)N[C@@H]1C(=O)N2C(C(=O)O)=C(Cc3ccc(C(=O)O)cc3)CS[C@H]12)c1ccccc1 : 48200

----------
run_description: Drug level in mouse blood at 50 mg/kg, sc after 4 hrs by microbiological assay
Type: ADME, organism-based
Design: dose 50 mg/kg, route subcutaneous
details: read-out: Drug uptake
experimental_readout: concentration at 4 h

Some compounds with recorded concentration at 4 h:
O=C(Cc1cccs1)N[C@@H]1C(=O)N2C(C(=O)[O-])=C(C[n+]3ccccc3)CS[C@H]12; < 200 ng/mL
CC1=C(C(=O)O)N2C(=O)[C@@H](NC(=O)[C@H](N)c3ccccc3)[C@H]2SC1 [CEPHALEXIN ANHYDROUS]; < 150 ng/mL
N[C@@H](C(=O)N[C@@H]1C(=O)N2C(C(=O)O)=C(Cc3ccccc3C(=O)O)CS[C@H]12)c1ccccc1; 31200 ng/mL

Record N[C@@H](C(=O)N[C@@H]1C(=O)N2C(C(=O)O)=C(Cc3cncc(C(=O)O)c3)CS[C@H]12)c1ccccc1 , field concentration at 4 h: < 400 ng/mL

----------
run_description: Drug level in mouse blood at 50 mg/kg, sc after 2 hrs by microbiological assay
Type: ADME, organism-based
Set-up: dose 50 mg/kg, route subcutaneous
details: read-out: Drug uptake
Attribute: log10(concentration at 2 h)
log10 concentration at 2 h, ng/mL

CC(=O)OCC1=C(C(=O)O)N2C(=O)[C@@H](NC(=O)[C@H](N)c3ccccc3)[C@H]2SC1; 2.30
N[C@@H](C(=O)N[C@@H]1C(=O)N2C(C(=O)O)=C(Cc3cccc(C(=O)O)c3)CS[C@H]12)c1ccccc1; 4.14
N[C@@H](C(=O)N[C@@H]1C(=O)N2C(C(=O)O)=C(Cc3cncc(C(=O)O)c3)CS[C@H]12)c1ccccc1; 3.30

The molecule listed as CC1=C(C(=O)O)N2C(=O)[C@@H](NC(=O)[C@H](N)c3ccccc3)[C@H]2SC1 [CEPHALEXIN ANHYDROUS] has a reported log10(concentration at 2 h) of 2.62

Recorded result, N[C@@H](C(=O)N[C@@H]1C(=O)N2C(C(=O)O)=C(Cc3ccc(C(=O)O)cc3)CS[C@H]12)c1ccccc1 , log10(concentration at 2 h): 4.34

Input N[C@@H](C(=O)N[C@@H]1C(=O)N2C(C(=O)O)=C(Cc3ccccc3C(=O)O)CS[C@H]12)c1ccccc1 . Output log10(concentration at 2 h): 4.61

Reported log10(concentration at 2 h) of O=C(Cc1cccs1)N[C@@H]1C(=O)N2C(C(=O)[O-])=C(C[n+]3ccccc3)CS[C@H]12 : 2.85

----------
run_description: Drug level in mouse blood at 50 mg/kg, sc after 20 mins by microbiological assay
Format: ADME, organism-based
Set-up: dose 50 mg/kg, route subcutaneous
details: read-out: Drug uptake
experimental_readout: concentration at 20 min (µg/mL)
Unit µg/mL implied. Number only.

N[C@@H](C(=O)N[C@@H]1C(=O)N2C(C(=O)O)=C(Cc3cncc(C(=O)O)c3)CS[C@H]12)c1ccccc1; 54

What the record says about N[C@@H](C(=O)N[C@@H]1C(=O)N2C(C(=O)O)=C(Cc3ccccc3C(=O)O)CS[C@H]12)c1ccccc1 : concentration at 20 min is 66

So, N[C@@H](C(=O)N[C@@H]1C(=O)N2C(C(=O)O)=C(Cc3cccc(C(=O)O)c3)CS[C@H]12)c1ccccc1 ? Its concentration at 20 min was 64.2

Measured concentration at 20 min of N[C@@H](C(=O)N[C@@H]1C(=O)N2C(C(=O)O)=C(Cc3ccc(C(=O)O)cc3)CS[C@H]12)c1ccccc1 : 87.4

Field concentration at 20 min (entry CC(=O)OCC1=C(C(=O)O)N2C(=O)[C@@H](NC(=O)[C@H](N)c3ccccc3)[C@H]2SC1 ) reads 30.2

The molecule listed as CC1=C(C(=O)O)N2C(=O)[C@@H](NC(=O)[C@H](N)c3ccccc3)[C@H]2SC1 [CEPHALEXIN ANHYDROUS] has a reported concentration at 20 min of 20.5

Documented concentration at 20 min of O=C(Cc1cccs1)N[C@@H]1C(=O)N2C(C(=O)[O-])=C(C[n+]3ccccc3)CS[C@H]12 : 24.4

Reference source for all entries: ChEMBL document CHEMBL3244187
